This collection of values is drawn from paper PMC6851853.

# Assayed System: CatC (bovine) (Bos taurus, UniProt Q3ZCJ8)
# Construct: gene CTSC; native, purified to homogeneity from bovine spleen
# Sequence (Q3ZCJ8 25-134): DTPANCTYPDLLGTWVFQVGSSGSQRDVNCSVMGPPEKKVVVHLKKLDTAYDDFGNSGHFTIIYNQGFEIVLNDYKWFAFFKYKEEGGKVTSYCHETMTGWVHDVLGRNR
# Sequence (Q3ZCJ8 231-394): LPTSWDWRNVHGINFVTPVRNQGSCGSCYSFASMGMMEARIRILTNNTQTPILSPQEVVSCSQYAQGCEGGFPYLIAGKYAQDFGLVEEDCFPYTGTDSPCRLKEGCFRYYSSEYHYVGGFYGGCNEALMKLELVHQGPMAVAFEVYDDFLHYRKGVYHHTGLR
# Sequence (Q3ZCJ8 395-463): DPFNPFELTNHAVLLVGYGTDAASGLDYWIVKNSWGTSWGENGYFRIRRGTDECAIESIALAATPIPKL
# Procedure Text: biochemical
# Design: continuous fluorogenic assay, time-dependent inactivation of 0.2 nM CatC, Gly-Arg-AMC 15 uM
# Recorded Conditions: read-out: CatC / k inact ·10^3
Measured Quantity: kinact (s⁻¹)
Report the figure in s⁻¹ without appending any unit label.

Worked examples follow.
(Q) Which kinact value is on record for CCC[C@H](N)C(=O)N[C@H](/C=C/S(=O)(=O)c1ccccc1)CCc1ccccc1 [nVal‐hPhe‐VS] ?
(A) 0.0022

(Q) Check N[C@@H](Cc1ccc2ccccc2c1)C(=O)N[C@H](/C=C/S(=O)(=O)c1ccccc1)CCc1ccccc1 [2Nal‐hPhe‐VS] too.
(A) 0.0037

(Q) Check O=C(N[C@H](/C=C/S(=O)(=O)c1ccccc1)CCCCOCc1ccccc1)[C@@H]1CCCCN1 [hPro‐nLeu(o‐Bzl)‐VS] too.
(A) 0.00167

---
(Q) Which kinact value is on record for N[C@H](Cc1c[nH]c2ccccc12)C(=O)N[C@H](/C=C/S(=O)(=O)c1ccccc1)CCc1ccccc1 [D‐Trp‐hPhe‐VS] ?
(A) 0.0026
